target: Beta-1 adrenergic receptor (Cavia porcellus, UniProt B0FL73)
Sequence (B0FL73 whole entry): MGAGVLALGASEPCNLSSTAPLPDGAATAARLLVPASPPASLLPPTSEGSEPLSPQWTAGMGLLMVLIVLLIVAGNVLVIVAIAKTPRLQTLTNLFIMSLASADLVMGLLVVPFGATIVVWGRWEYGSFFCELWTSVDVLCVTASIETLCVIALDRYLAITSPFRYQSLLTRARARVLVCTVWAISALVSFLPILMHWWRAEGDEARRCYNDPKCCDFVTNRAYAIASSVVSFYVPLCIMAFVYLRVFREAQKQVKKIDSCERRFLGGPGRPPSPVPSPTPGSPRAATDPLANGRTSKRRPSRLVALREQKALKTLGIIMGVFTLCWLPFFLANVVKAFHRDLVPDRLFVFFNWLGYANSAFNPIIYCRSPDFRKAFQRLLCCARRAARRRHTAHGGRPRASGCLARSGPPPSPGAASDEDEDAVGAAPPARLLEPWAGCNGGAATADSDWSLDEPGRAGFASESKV
pKi: −log10 of the molar value.
metric: pKi

IN: Name the reported pKi value associated with the compound CC(N)Cc1c[nH]c2ccc(OCc3cccs3)cc12 (stereo unspecified) [NSC_5311036]
OUT: < 5.00

====

molecular target: 5-hydroxytryptamine receptor 1B (Oryctolagus cuniculus)
Sequence (P49144 whole entry): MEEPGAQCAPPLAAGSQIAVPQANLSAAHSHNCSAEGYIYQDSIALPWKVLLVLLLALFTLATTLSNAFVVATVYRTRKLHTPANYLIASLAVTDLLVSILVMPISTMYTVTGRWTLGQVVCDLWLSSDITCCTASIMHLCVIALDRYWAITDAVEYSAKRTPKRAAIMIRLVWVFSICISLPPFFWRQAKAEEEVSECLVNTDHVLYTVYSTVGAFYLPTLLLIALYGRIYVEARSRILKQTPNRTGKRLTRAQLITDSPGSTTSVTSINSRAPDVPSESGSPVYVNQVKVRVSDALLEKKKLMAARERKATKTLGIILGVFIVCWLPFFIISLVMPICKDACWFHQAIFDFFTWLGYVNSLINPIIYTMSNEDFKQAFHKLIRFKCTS
metric: Ki

IN: Field: Ki (5-hydroxytryptamine receptor 1B (Oryctolagus cuniculus)). Entry: CC(N)Cc1c[nH]c2ccc(OCc3cccs3)cc12 (stereo unspecified) [NSC_5311036]
OUT: > 10 µM

====

molecular target: 5-hydroxytryptamine receptor 2A (Rattus norvegicus, UniProt P14842)
Sequence (P14842 whole entry): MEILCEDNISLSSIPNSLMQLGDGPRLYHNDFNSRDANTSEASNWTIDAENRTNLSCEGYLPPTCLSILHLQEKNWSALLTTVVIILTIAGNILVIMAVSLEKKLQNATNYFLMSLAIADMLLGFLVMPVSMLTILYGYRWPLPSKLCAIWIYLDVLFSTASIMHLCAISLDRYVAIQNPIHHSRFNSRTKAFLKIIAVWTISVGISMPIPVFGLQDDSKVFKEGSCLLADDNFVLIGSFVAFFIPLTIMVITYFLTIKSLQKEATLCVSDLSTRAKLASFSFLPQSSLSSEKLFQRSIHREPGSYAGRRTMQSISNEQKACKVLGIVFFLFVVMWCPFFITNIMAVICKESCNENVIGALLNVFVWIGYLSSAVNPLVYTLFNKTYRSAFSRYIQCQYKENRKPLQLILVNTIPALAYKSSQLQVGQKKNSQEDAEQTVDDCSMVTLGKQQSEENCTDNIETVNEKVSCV
metric: Ki (µM)
Respond numerically; units are µM and should not be typed.

IN: # lookup: Ki of CC(N)Cc1c[nH]c2ccc(OCc3cccs3)cc12 (stereo unspecified) [NSC_5311036]
OUT: 3.98
